system: HCC-2998 colon; assay: NCI tumour cell line growth inhibition, 48 h
Provide the reported TGI of each item.
Number only, in µM; omit the unit.

// fetch TGI given entry COc1ccc2nc3cc(Cl)ccc3c(NCCNCC(C)O)c2c1 (stereo unspecified)
2.94

// fetch TGI given entry COCCOc1ccc(-c2nc3ccc(-c4nc5ccc(N6CCN(C)CC6)cc5[nH]4)cc3[nH]2)cc1
3.77

// fetch TGI given entry COc1ccc(/C=N/NC(=O)c2cccc3cc[nH]c23)cc1O
97.5

----------
test system: HOP-62 NSCLC; experiment: NCI tumour cell line growth inhibition, 48 h; in the data active means GI50 below about 0.43 µM; inactive means the rest
# valid calls are active, inactive; nothing else

Could you please tell me the result logged for O=C(CCCSc1nc(-c2ccccc2)cc(-c2ccccc2)n1)NO in this assay?
inactive

Could you please tell me the result logged for Cc1csc(-c2nnc(Nc3ccc(Oc4ncccc4-c4ccnc(N)n4)cc3)c3ccccc23)c1 in this assay?
inactive

Could you please tell me the result logged for O=c1ccc2ccccc2cc1[O-].O=c1ccc2ccccc2cc1[O-].[O]=[U+2]=[O] in this assay?
inactive

Could you please tell me the result logged for CN1CC[C@@H](NC(=O)Nc2ccc(C#N)cc2)C[C@@H]1c1nc2ccccc2[nH]1 in this assay?
inactive

Could you please tell me the result logged for CCn1c(-c2nonc2N)nc2c(C#CC(C)(C)O)nc(OC[C@@H](N)c3ccccc3)cc21 in this assay?
inactive

Could you please tell me the result logged for O=C1CCCCN1c1ccccc1C#C/C=C\C#Cc1ccccc1C(F)(F)F in this assay?
inactive

Could you please tell me the result logged for C[C@]12CCC3c4ccc(O)cc4CCC3C1CC[C@@]2(O)CNC(=O)/C=C/c1ccc(O)c(O)c1 (stereo partly drawn) in this assay?
inactive

Could you please tell me the result logged for c1ccc(Sc2ncnc3ccccc23)cc1 in this assay?
inactive

Could you please tell me the result logged for COc1ccc(C2[C@@H](c3ccccc3)C(=O)N2c2cc(OC)c(OC)c(OC)c2)cc1F (stereo partly drawn) in this assay?
active

Could you please tell me the result logged for CCCOc1cc2ccccc2cc1C(=O)Nc1nc(N)c2c(ccc3nccc32)[nH]1 in this assay?
active

Could you please tell me the result logged for N#Cc1c[nH]n2c(N=Nc3ccc(Cl)cc3)c(O)nc12 in this assay?
inactive

Could you please tell me the result logged for COC[C@H]1Cn2cc(-c3nc(Nc4ccnn4C)ncc3C)nc2C(=O)N1Cc1ccc(F)c(F)c1 in this assay?
inactive

Could you please tell me the result logged for Cc1ccc(-n2c3nc(=O)[nH]c(=O)c-3cc3cc([N+](=O)[O-])ccc32)cc1 in this assay?
inactive

Could you please tell me the result logged for COc1ccc(-c2cn[nH]c2-c2cc(OC)c(OC)c(OC)c2)cc1 in this assay?
active

Could you please tell me the result logged for COCCOc1ccc(-c2nc3ccc(-c4nc5ccc(N6CCN(C)CC6)cc5[nH]4)cc3[nH]2)cc1 in this assay?
inactive

Could you please tell me the result logged for Nc1n[nH]c2cccc(C#Cc3cccc(C(=O)Nc4ccc(CN5CCOCC5)c(C(F)(F)F)c4)c3)c12 in this assay?
inactive

Could you please tell me the result logged for CCN(Cc1ccc(F)cc1)c1cc(Cl)c(CO)c(Cl)c1 in this assay?
inactive

Could you please tell me the result logged for Cc1nnc(NC(=O)c2nc(S(=O)(=O)Cc3ccc(F)cc3)ncc2Cl)s1 in this assay?
inactive

----------
tested on: NCI-H522 lung; assay: NCI tumour cell line growth inhibition, 48 h
Kind request: treat 3 µM as inclusive, so TGI at 3 µM or higher is 1, anything lower is -1.

Threshold query (TGI >= 3 µM) on O=c1c(-c2ccccc2)c2oc(c1-c1ccccc1)CSCc1cccc(c1)CSC2
1

Threshold query (TGI >= 3 µM) on Nn1c(Nc2ccc(S(=O)(=O)Nc3ncccn3)cc2)nnc(/C=C/c2c(O)ccc3ccccc23)c1=O
1

Threshold query (TGI >= 3 µM) on COCCOc1ccc(-c2nc3ccc(-c4nc5ccc(N6CCN(C)CC6)cc5[nH]4)cc3[nH]2)cc1
-1

Threshold query (TGI >= 3 µM) on Cc1ccc(/C=C/C(=O)c2cccc3ccccc23)cc1
1

Threshold query (TGI >= 3 µM) on COc1cc(S(=O)(=O)Nc2nc(-c3ccc(N4C(=O)C(CC(=O)O)SC4c4cccs4)cc3)cs2)ccc1Cl (centres undefined)
1

Threshold query (TGI >= 3 µM) on O=[N+]([O-])c1ccc(Cl)cc1N/N=C/c1ccnc2ccccc12
1

Threshold query (TGI >= 3 µM) on CC1=C2C(=C[C@@](C)(CO)[C@@H]2O)C(=O)[C@](C)(O)C12CC2
-1

Threshold query (TGI >= 3 µM) on S=C(N/N=C(/c1ccccc1)c1ccccn1)N(Cc1ccccn1)Cc1ccccn1
1

Threshold query (TGI >= 3 µM) on O=C1CCCCN1c1ccccc1C#C/C=C\C#Cc1ccccc1C(F)(F)F
1

----------
system: OVCAR-8 ovarian; assay: NCI tumour cell line growth inhibition, 48 h; in the data active means GI50 below about 0.43 µM; inactive means the rest
# valid calls are 1 (active), 0 (inactive); nothing else

Could you please tell me the result logged for O=C(Oc1ccc(Cl)cc1)c1ccccc1Nc1ccnc(C(F)(F)F)c1 in this assay?
0

Could you please tell me the result logged for Nc1ccccc1SC(CC(=O)c1ccccc1)c1cccc([N+](=O)[O-])c1 (stereo unspecified) in this assay?
0

Could you please tell me the result logged for COC[C@H]1Cn2cc(-c3nc(Nc4ccnn4C)ncc3C)nc2C(=O)N1Cc1ccc(F)c(F)c1 in this assay?
0

Could you please tell me the result logged for Cc1ccc(-n2c3nc(=O)[nH]c(=O)c-3cc3cc([N+](=O)[O-])ccc32)cc1 in this assay?
0

Could you please tell me the result logged for COc1cccc(-c2nc(-c3ccc(NC(=O)OC(C)C)cc3)[nH]c2-c2ccnc(Br)c2)c1 in this assay?
0

Could you please tell me the result logged for C=C1C(=O)O[C@H]2[C@H]1CC/C(COC(=O)NCc1ccc(Cn3c(=O)sn(-c4ccc(OC)cc4)c3=O)cc1)=C\CC[C@@]1(C)O[C@@H]21 in this assay?
0

Could you please tell me the result logged for Nc1n[nH]c2cc(F)c([C@@H]3Nc4ccc5[nH]ncc5c4[C@H]4C5CCC(C5)[C@@H]34)cc12 (stereo partly specified) in this assay?
1

Could you please tell me the result logged for Nc1ccc(C2=NNC(=O)Cc3cc4c(cc32)OCCO4)cc1Cl in this assay?
0

Could you please tell me the result logged for O=C(/C(=C/c1ccc([N+](=O)[O-])cc1)SCc1ccccc1)c1ccc(Cl)cc1 in this assay?
0

Could you please tell me the result logged for CCC(=C/[C@H](C)C/C=C/C(C)=C/[C@@H](C)C(=O)[C@@H](C)[C@H](O)[C@@H](C)CC)/C=C/[C@H]1OC(=O)C=C[C@@H]1C in this assay?
1

Could you please tell me the result logged for COc1ccc2nc(NC(=O)CSc3nnc4n3S(=O)(=O)c3ccccc3N4c3ccccc3)sc2c1 in this assay?
0

Could you please tell me the result logged for CC(C)[C@@H]1C=C2CC[C@H]3[C@](C)(CN)CCC[C@]3(C)[C@H]2CC1 in this assay?
0

Could you please tell me the result logged for COc1ccc(CN2C(=O)/C(=C\c3cc(OC)c(OC)c(OC)c3)c3ccccc32)cc1 in this assay?
0

Could you please tell me the result logged for COc1cc(/C(C#N)=C/c2nc3c(N4CCOCC4)nc(Cl)nc3n2C)cc(OC)c1OC in this assay?
1

Could you please tell me the result logged for O=c1ccc2ccccc2cc1[O-].O=c1ccc2ccccc2cc1[O-].[O]=[U+2]=[O] in this assay?
0

Could you please tell me the result logged for COc1ccc2nc3cc(Cl)ccc3c(NCCNCC(C)O)c2c1 (stereo unspecified) in this assay?
0

----------
test system: SF-295 CNS; assay: NCI tumour cell line growth inhibition, 48 h
Provide the reported TGI of each item.

// fetch TGI given entry CCN(CC)CCNC(=O)c1cc2cc(NC(=O)c3cc4cc([N+](=O)[O-])ccc4[nH]3)ccc2[nH]1
65.6 µM

// fetch TGI given entry O=c1ccc2ccccc2cc1[O-].O=c1ccc2ccccc2cc1[O-].[O]=[U+2]=[O]
63.5 µM

// fetch TGI given entry C=C1C(=O)O[C@H]2[C@H]1CC/C(COC(=O)NCc1ccc(Cn3c(=O)sn(-c4ccc(OC)cc4)c3=O)cc1)=C\CC[C@@]1(C)O[C@@H]21
28.9 µM

// fetch TGI given entry COc1ccc(N=NC(=Nc2ccccc2)c2ccc(N(CCC#N)CCC#N)cc2)cc1
> 100 µM

// fetch TGI given entry CCCCCC[C@@H]1CCC2C(CO)[C@@H](O)CC[C@@H]2C1 (stereo partly specified)
30.3 µM

// fetch TGI given entry COc1ccc(-c2[nH]c3c4c(nc5c(c24)C(=O)CC(C)(C)C5)CC(C)(C)C3)cc1
> 100 µM

// fetch TGI given entry Cc1ccc(N(Cc2ccccc2)Cc2ccccc2)cc1
> 100 µM

// fetch TGI given entry Nc1ccc(C2=NNC(=O)Cc3cc4c(cc32)OCCO4)cc1Cl
> 50 µM

// fetch TGI given entry COc1ccc(CCN=C2NC(=O)/C(=C/c3ccc4ncccc4c3)S2)cc1
> 25 µM

// fetch TGI given entry N#Cc1c[nH]n2c(N=Nc3ccc(Cl)cc3)c(O)nc12
> 100 µM

// fetch TGI given entry CC(C)=CCC[C@@H](C)c1c(O)c(O)c(C)c2nccnc12
> 71.2 µM

// fetch TGI given entry CCOC(=O)C1=C(C(=O)OCC)C2c3ccccc3C=CN2C(C(=O)OCC)=C(SC)S1 (stereo unspecified)
> 100 µM

// fetch TGI given entry S=C(N/N=C(/c1ccccc1)c1ccccn1)N(Cc1ccccn1)Cc1ccccn1
1.82 µM

// fetch TGI given entry CCOC(=S)SCC(=O)O
> 100 µM

// fetch TGI given entry O=C(/C=C/c1ccccc1)C[C@@H](O)C[C@@H]1CC=CC(=O)O1
28 µM

// fetch TGI given entry NS(=O)(=O)c1nnc(NC(=O)Nc2ccc(Cl)c(Cl)c2)s1
> 100 µM

// fetch TGI given entry Cn1ccc2c3c(Oc4ccc(NC(N)=O)cc4)ccnc3ccc21
> 100 µM

// fetch TGI given entry C[C@]12CCC3C4=C(CCC3C1CCC2=O)C(=O)[C@H]1O[C@H]1C4=O (stereo partly specified)
29.8 µM

// fetch TGI given entry CC(=O)Nc1nc(NC(C)=O)c2[nH]c(CO)nc2n1
> 100 µM

// fetch TGI given entry CN1CC[C@@H](NC(=O)Nc2ccc(C#N)cc2)C[C@@H]1c1nc2ccccc2[nH]1
> 100 µM

// fetch TGI given entry N#CC(NCc1cccc(CNC(C#N)c2ccccc2)c1)c1ccccc1 (stereo unspecified)
> 100 µM
